Origin of measurements: paper PMC5540273

- Test system: CSNK1A1
- condition.label: concentration: 1 μM,replicates: in singlicate; n = 1;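 further: KINOMEscan kinase panel screen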

{"compound": "NC(=O)c1cc(-c2ccccc2)cc2c(C3CCNCC3)c[nH]c12 [GSK301362]", "u": "%", "%Inh": 0}
{"compound": "Cl.Cl.Nc1nc(-c2ccc3c(N)n[nH]c3c2)cc(N2CCCC(NC(=O)c3ccccc3)C2)n1 (centres unmarked) [GSK2286775]", "u": "%", "%Inh": 0}
{"compound": "COc1ccc(C[C@@H](CN)NC(=O)c2cc(Br)c(-c3ccnc4[nH]ccc34)s2)cc1.Cl.Cl [GSK1389063]", "u": "%", "%Inh": 88}
{"compound": "Cc1ccc(-n2nc(C(C)(C)C)cc2NC(=O)Nc2ccc(OCCN3CCOCC3)c3ccccc23)cc1 [GW839464]", "u": "%", "%Inh": 0}
{"compound": "Cc1cc(C(=O)Nc2ccc(Oc3ccc4nc(NC(=O)C5CC5)cn4n3)cc2)nn1-c1ccccc1", "u": "%", "%Inh": 43}
{"compound": "Cl.Cl.NC[C@H](Cc1ccc(C(F)(F)F)cc1)NC(=O)c1cc(Br)c(-c2ccnc3[nH]ccc23)s1 [GSK1487252]", "u": "%", "%Inh": 27}
{"compound": "O=C(NCCNc1ccnc(NCc2ccc(F)cc2)n1)c1cc2ccccc2s1 [GSK1379944]", "u": "%", "%Inh": 0}
{"compound": "CC(C)N1C(=O)Cc2cc(Nc3ncc(C(F)(F)F)c(NCc4cccc(S(C)(=O)=O)c4)n3)ccc21", "u": "%", "%Inh": 0}

###

- Test system: MINK
- Construct: gene MINK1
- condition.label: concentration: 1 μM,replicates: in singlicate; n = 1
quantity.measured: %Inh

{"compound": "O=C(NCCNc1ccnc(NCc2ccc(F)cc2)n1)c1cc2ccccc2s1 [GSK1379944]", "experimental.system": "MINK", "reported.result": "0%"}
{"compound": "CN(C)CCOc1ccc(-c2cc(-c3c[nH]nc3-c3ccccn3)ccn2)cc1 [GW835314]", "experimental.system": "MINK", "reported.result": "89%"}
{"compound": "Cl.Oc1cc(-c2nc(-c3ccccc3)[nH]c2-c2ccncc2)ccc1Cl [SB-386023]", "experimental.system": "MINK", "reported.result": "5%"}
{"compound": "CCN(CC)CCCCNc1ncc2cc(-c3c(Cl)cccc3Cl)c(NC(=O)NC(C)(C)C)nc2n1", "experimental.system": "MINK", "reported.result": "45%"}
{"compound": "NC(=O)c1cc(-c2ccccc2)cc2c(C3CCNCC3)c[nH]c12 [GSK301362]", "experimental.system": "MINK", "reported.result": "56%"}
{"compound": "C=CC(=O)Nc1cc2c(Nc3ccc(F)c(Cl)c3)ncnc2cc1OCCCN1CCOCC1 [GW781483]", "experimental.system": "MINK", "reported.result": "26%"}
{"compound": "C[C@@H](Oc1cc(-c2cnn(C3CCNCC3)c2)cnc1N)c1c(Cl)ccc(F)c1Cl", "experimental.system": "MINK", "reported.result": "47%"}
{"compound": "Cc1cc2cn[nH]c2cc1-c1cccc2c(N)c(C(N)=O)nnc12", "experimental.system": "MINK", "reported.result": "55%"}
{"compound": "Cc1ccc(-n2nc(C(C)(C)C)cc2NC(=O)Nc2ccc(OCCN3CCOCC3)c3ccccc23)cc1 [GW839464]", "experimental.system": "MINK", "reported.result": "84%"}

###

- Tested on: YANK3
- Construct: gene STK32C
- condition.label: concentration: 1 μM,replicates: in singlicate; n = 1

{"molecule": "CC(C)N1C(=O)Cc2cc(Nc3ncc(C(F)(F)F)c(NCc4cccc(S(C)(=O)=O)c4)n3)ccc21", "%Inh, %": 0}
{"molecule": "CC(C)Nc1cc(-c2ccc3c(N)n[nH]c3c2)nc(N)n1", "%Inh, %": 2}
{"molecule": "Cc1n[nH]c2ccc(-c3cc(OC[C@@H](N)Cc4ccccc4)cnc3-c3ccoc3)cc12.O=C(O)C(F)(F)F.O=C(O)C(F)(F)F", "%Inh, %": 47}
{"molecule": "Cl.Cl.NC[C@H](Cc1ccc(C(F)(F)F)cc1)NC(=O)c1cc(Br)c(-c2ccnc3[nH]ccc23)s1", "%Inh, %": 13}
{"molecule": "CN(C)CC(O)COc1ccc(Nc2nccc(-c3cnn4nc(N5CCOCC5)ccc34)n2)cc1 (centres unmarked)", "%Inh, %": 0}
{"molecule": "C[C@@H]1CCN(C(=O)CC#N)C[C@@H]1N(C)c1ncnc2[nH]ccc12", "%Inh, %": 0}
{"molecule": "CNC(=O)c1ccccc1Sc1ccc2c(/C=C/c3ccccn3)n[nH]c2c1", "%Inh, %": 0}
{"molecule": "CCN(CC)CCOc1ccc(Nc2ncc3cc(-c4c(Cl)cccc4Cl)c(=O)n(C)c3n2)cc1", "%Inh, %": 27}

###

The entries below come with measured %Inh values attached.
- Tested on: YSK1
- Construct: gene STK25
- condition.label: concentration: 1 μM,replicates: in singlicate; n = 1
quantity.measured: %Inh (%)

{"compound": "C=CC(=O)Nc1cc2c(Nc3ccc(F)c(Cl)c3)ncnc2cc1OCCCN1CCOCC1", "quantity.measured": "%Inh", "reported.result": 0}
{"compound": "Nc1nc(Nc2ccccc2)cc(-c2ccc3c(N)n[nH]c3c2)n1", "quantity.measured": "%Inh", "reported.result": 0}
{"compound": "CC(C)N1C(=O)Cc2cc(Nc3ncc(C(F)(F)F)c(NCc4cccc(S(C)(=O)=O)c4)n3)ccc21", "quantity.measured": "%Inh", "reported.result": 0}
{"compound": "O=C(NCCNc1ccnc(NCc2ccc(F)cc2)n1)c1cc2ccccc2s1", "quantity.measured": "%Inh", "reported.result": 0}
{"compound": "Cc1occc1-c1nc(N)c(OC[C@@H](N)Cc2c[nH]c3ccccc23)cc1-c1cc2c(C)n[nH]c2cn1", "quantity.measured": "%Inh", "reported.result": 57}
{"compound": "Cc1cc(C(=O)Nc2ccc(Oc3ccc4nc(NC(=O)C5CC5)cn4n3)cc2)nn1-c1ccccc1", "quantity.measured": "%Inh", "reported.result": 1}
{"compound": "C[C@H]1Oc2cc(cnc2N)-c2c(nn(C)c2C#N)CN(C)C(=O)c2ccc(F)cc21", "quantity.measured": "%Inh", "reported.result": 0}
{"compound": "CN(C)CC(O)COc1ccc(Nc2nccc(-c3cnn4nc(N5CCOCC5)ccc34)n2)cc1 (centres unmarked)", "quantity.measured": "%Inh", "reported.result": 17}
{"compound": "CCn1c(-c2nonc2N)nc2c(C#CC(C)(C)O)nc(OCCN)cc21.Cl.Cl", "quantity.measured": "%Inh", "reported.result": 0}
{"compound": "CCN(CC)CCCCNc1ncc2cc(-c3c(Cl)cccc3Cl)c(NC(=O)NC(C)(C)C)nc2n1", "quantity.measured": "%Inh", "reported.result": 58}
{"compound": "CCN(CC)CCOc1ccc(Nc2ncc3cc(-c4c(Cl)cccc4Cl)c(=O)n(C)c3n2)cc1", "quantity.measured": "%Inh", "reported.result": 37}
{"compound": "CN(C)CCOc1ccc(-c2cc(-c3c[nH]nc3-c3ccccn3)ccn2)cc1", "quantity.measured": "%Inh", "reported.result": 0}
{"compound": "C[C@@H](Oc1cc(-c2cnn(C3CCNCC3)c2)cnc1N)c1c(Cl)ccc(F)c1Cl", "quantity.measured": "%Inh", "reported.result": 0}
{"compound": "O=C(NCCCN1CCOC1=O)c1cnc(NCc2cc(Cl)ccc2Cl)nc1NC1CCCC1", "quantity.measured": "%Inh", "reported.result": 0}
{"compound": "C[C@@H]1CCN(C(=O)CC#N)C[C@@H]1N(C)c1ncnc2[nH]ccc12", "quantity.measured": "%Inh", "reported.result": 0}
{"compound": "CC(C)Nc1cc(-c2ccc3c(N)n[nH]c3c2)nc(N)n1", "quantity.measured": "%Inh", "reported.result": 14}
{"compound": "Cl.Oc1cc(-c2nc(-c3ccccc3)[nH]c2-c2ccncc2)ccc1Cl", "quantity.measured": "%Inh", "reported.result": 0}

###

- Tested on: AKT2
- condition.label: concentration: 1 μM,replicates: in singlicate; n = 1
%Inh values, listed per item
quantity.measured: %Inh (%)

{"compound.structure": "Cc1cc2cn[nH]c2cc1-c1cccc2c(N)c(C(N)=O)nnc12", "u": "%", "reported.result": 0}
{"compound.structure": "Cc1occc1-c1nc(N)c(OC[C@@H](N)Cc2c[nH]c3ccccc23)cc1-c1cc2c(C)n[nH]c2cn1", "u": "%", "reported.result": 99.5}
{"compound.structure": "C[C@@H]1CCN(C(=O)CC#N)C[C@@H]1N(C)c1ncnc2[nH]ccc12", "u": "%", "reported.result": 0}
{"compound.structure": "CN(C)CCOc1ccc(-c2cc(-c3c[nH]nc3-c3ccccn3)ccn2)cc1", "u": "%", "reported.result": 0}
{"compound.structure": "CCN(CC)CCOc1ccc(Nc2ncc3cc(-c4c(Cl)cccc4Cl)c(=O)n(C)c3n2)cc1", "u": "%", "reported.result": 0}
{"compound.structure": "C[C@H]1Oc2cc(cnc2N)-c2c(nn(C)c2C#N)CN(C)C(=O)c2ccc(F)cc21", "u": "%", "reported.result": 11}
